test: chemical genetic growth profiling, strain panel (AID 1159580);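 also: tested at 20 µM; growth read once vehicle control cultures reached saturation at 30 °C; 1 = growth at the plate median or of vehicle wells; lower values mean less growth of the strain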; details: S. cerevisiae deletion strains, growth OD, locus YJL095W, strain BCK1, hits give low values
Screen size: about 5,500 compounds; about 2,000 (36%) were called active. Another 18% or so got no clear call; they are omitted. The list shows a part of the results.
observed-property: normalized growth
Format: numeric value only, no unit, no commentary.

These recorded examples may help you get a feel for the data.
Entry NNC(=O)c1csc(Cc2c(Cl)sc3ccc(Cl)cc23)n1 — recorded normalized growth = 0.994

For reference, reported normalized growth for CS(=O)(=O)c1sc(C(=O)Sc2ccc(Cl)cc2)c2c1C=CCC2 stands at 0.369

Further cases:
The reported normalized growth of the compound O=C(NNc1ccc(Cl)cc1)c1ccc(F)cc1F was 0.271

Notebook: COc1ccc(C(=O)NCc2csc3ccc(Cl)cc23)cc1OC , normalized growth read as 1.05

Recorded result, CC(CCC(=O)O)[C@H]1CCC2C3CC[C@@H]4C[C@H](O)CC[C@]4(C)C3C[C@H](O)[C@@]21C (some centres not stated) , normalized growth: 1.04
